# Experimental system: Sphingosine 1-phosphate receptor 1 (Homo sapiens, UniProt P21453)
# Sequence (P21453 whole entry): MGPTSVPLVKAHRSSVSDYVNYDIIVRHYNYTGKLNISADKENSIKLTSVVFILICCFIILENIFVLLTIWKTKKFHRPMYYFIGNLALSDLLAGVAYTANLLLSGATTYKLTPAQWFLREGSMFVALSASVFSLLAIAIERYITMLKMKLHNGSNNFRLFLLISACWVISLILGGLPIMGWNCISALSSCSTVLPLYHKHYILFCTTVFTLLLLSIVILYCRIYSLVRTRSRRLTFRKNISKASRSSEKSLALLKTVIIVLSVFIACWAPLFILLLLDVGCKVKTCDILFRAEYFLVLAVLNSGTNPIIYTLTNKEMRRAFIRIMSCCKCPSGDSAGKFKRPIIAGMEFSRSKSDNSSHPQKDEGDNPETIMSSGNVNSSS
# Assay explanation: potentiators of S1P1 agonist response, dose response, cell-based, potentiator mode, 60K MLSMR set (AID 466)
For each of the compounds below, state its EC50.
Give bare numbers, in µM.

Recorded results for 5 compounds are shown here.
1. COc1cc(CSc2nnnn2-c2ccc(C)cc2)cc(OC)c1OC    2.87
2. CCOc1ccc(C2CC(c3cccc(OC)c3OC)n3nnnc3N2)cc1Cl (stereo not given)    68.9
3. CCCC(=O)Nc1ccc2oc(-c3ccc(OC)c(Br)c3)nc2c1    4.14
4. COc1ccc(CNC(=O)c2cc3c(C)nc4ccccc4c3o2)c(OC)c1    5.06
5. OCC12C=CC(O1)c1c2c(O)n(-c2ccccc2-c2ccccc2)c1O (stereo not given)    6.82

Each compound below has a recorded value; state its EC50.
1. CCC1CCCCN1C(=O)CSc1nnc(-c2c[nH]c3ccccc23)o1 (stereo not given)
2. CCOc1ccc(-c2nc(-c3ccccc3C)no2)cc1

OUT:
1. 4.61
2. 1.52

// data source = BindingDB's records for doi:10.7270/Q2ZC817P
